inhibition reference
system_under_test: Lysine-specific demethylase 4C (Homo sapiens)
protocol: KDM4C H3K9me3 demethylation inhibition – biochemical, single concentration HTS, primary screen (AID 720574)
condition_context: GST-KDM4C 2-372, H3K9me3 peptide, LANCE TR-FRET; at 12.5 µM; stronger effect = higher value
Screen size: about 96,000 compounds; about 140 (0.15%) were called active. The full list was thinned out, with actives kept by preference.
API: value field is a number in %; no unit string.

Solved cases (7 shown):
Qu. I would be grateful if you could share the reported inhibition for `CC(C)(C)[S@](=O)N1Cc2cc(C(=O)N[C@@H]3CCN(Cc4ccccc4)C3)nc(-c3cccc(-c4ccncc4)c3)c2[C@@H]1CCO` .
Ans. -0.764

Qu. Now the same for `C[C@H](CO)N1C[C@H](C)[C@@H](CN(C)C(=O)c2ccncc2)Oc2cc(/C=C/c3ccccc3)ccc2S1(=O)=O`
Ans. -4.23

Qu. Now the same for `C[C@H](CO)N1C[C@H](C)[C@H](CN(C)CC2CCCCC2)OCCCC[C@H](C)Oc2ccc(NS(=O)(=O)c3ccc(F)cc3)cc2C1=O`
Ans. -1.51

Qu. Now the same for `O=C(C[C@H]1CC[C@H]2[C@@H](COC[C@H](O)CN2S(=O)(=O)c2cccc(F)c2)O1)NC1CCC1`
Ans. 0.711

Qu. Now the same for `CCCNC(=O)C[C@@H]1CC[C@H]2[C@H](COc3ccc(NC(=O)CCC)cc3C(=O)N2C)O1`
Ans. 1.75

Qu. Now the same for `CCCN(C)C[C@H]1Oc2ncc(-c3cccnc3)cc2C(=O)N([C@@H](C)CO)C[C@@H]1C`
Ans. -0.329

Qu. Now the same for `CO[C@H]1CN(C)C(=O)c2ccc(NC(C)=O)cc2OC[C@H](C)N(C(=O)Cc2ccccn2)C[C@@H]1C`
Ans. 0.463

Please examine the following record next.
Qu. I would be grateful if you could share the reported inhibition for `CCCN1[C@@H]2c3ccc(-c4ccccc4)c(=O)n3C[C@@H]2[C@@H](CO)[C@@H]1C(=O)N(C)C` .
Ans. 0.941

###

inhibition reference
system_under_test: Lysine-specific demethylase 4C (Homo sapiens) (UniProt Q9H3R0)
Sequence (Q9H3R0 2-372 limits assumed): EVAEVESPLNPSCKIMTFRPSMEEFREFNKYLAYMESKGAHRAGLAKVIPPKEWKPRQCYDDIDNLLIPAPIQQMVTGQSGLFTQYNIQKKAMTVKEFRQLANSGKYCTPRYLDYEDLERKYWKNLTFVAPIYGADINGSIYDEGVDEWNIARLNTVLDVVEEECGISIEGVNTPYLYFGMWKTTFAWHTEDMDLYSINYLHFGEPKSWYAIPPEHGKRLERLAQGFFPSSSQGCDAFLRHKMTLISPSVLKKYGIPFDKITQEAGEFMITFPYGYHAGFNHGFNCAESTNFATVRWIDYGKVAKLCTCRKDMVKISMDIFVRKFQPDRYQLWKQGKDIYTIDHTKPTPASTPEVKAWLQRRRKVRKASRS
protocol: KDM4C H3K9me3 demethylation inhibition – biochemical, single concentration HTS, primary screen (AID 720574)
condition_context: GST-KDM4C 2-372, H3K9me3 peptide, LANCE TR-FRET; at 12.5 µM; stronger effect = higher value
The whole screen tested about 96,000 compounds, of which about 140 (0.15%) were called active. The sample holds actives, similar compounds and a random draw of the others, so the mix is not that of the screen.

Solved cases (3 shown):
Qu. I would be grateful if you could share the reported inhibition for `CCCNC(=O)N1CC2(C1)[C@H](c1ccccc1)[C@@H](CO)N2C(=O)C1CC1` .
Ans. 1.13% (inactive)

Qu. Now the same for `C[C@H](CO)N1C[C@H](C)[C@H](CN(C)Cc2ccncc2)Oc2ncc(C#CCC3CCCCC3)cc2C1=O`
Ans. 2.4% (inactive)

Qu. Now the same for `CC(C)NC(=O)N(C)C[C@@H]1OCCCC[C@@H](C)Oc2ccc(NC(=O)NC3CCCCC3)cc2C(=O)N([C@@H](C)CO)C[C@@H]1C`
Ans. 0.134% (inactive)

Please examine the following record next.
Qu. I would be grateful if you could share the reported inhibition for `CN1c2ccc(-c3cccc(F)c3)cc2[C@H]2[C@H](CCN2C(=O)C2CCCC2)[C@@H]1CO` .
Ans. 5.91% (inactive)

###

inhibition reference
system_under_test: Lysine-specific demethylase 4C (Homo sapiens)
protocol: KDM4C H3K9me3 demethylation inhibition – biochemical, single concentration HTS, primary screen (AID 720574)
condition_context: GST-KDM4C 2-372, H3K9me3 peptide, LANCE TR-FRET; at 12.5 µM; stronger effect = higher value
Among all 96,000 compounds or so, about 140 (0.15%) were called active. The full list was thinned out, with actives kept by preference.
API: value field is a number in %; no unit string.

Solved cases (5 shown):
Qu. I would be grateful if you could share the reported inhibition for `COc1ccc(CN(C)C[C@@H]2Oc3ccc(NC(=O)Nc4ccc(F)cc4)cc3CC(=O)N([C@@H](C)CO)C[C@H]2C)cc1` .
Ans. -0.133

Qu. Now the same for `CN(C)CC(=O)N1[C@@H](CO)[C@H](c2ccccc2)C12CN(C(=O)c1cccc(F)c1)C2`
Ans. -0.471

Qu. Now the same for `Cc1noc(C)c1NC(=O)N(C)C[C@@H]1OCCCC[C@H](C)Oc2ccc(NC(=O)c3ccccc3)cc2C(=O)N([C@@H](C)CO)C[C@@H]1C`
Ans. 1.18

Qu. Now the same for `COc1cccc(C(=O)Nc2ccc3c(c2)C(=O)N(C)[C@@H]2CC[C@@H](CC(=O)NCCCN4CCOCC4)O[C@@H]2CO3)c1`
Ans. -0.807

Qu. Now the same for `CO[C@@H]1CN(C)C(=O)c2cc(NC(=O)C3CCCC3)ccc2OC[C@H](C)N(C)C[C@@H]1C`
Ans. -0.0185

Please examine the following record next.
Qu. I would be grateful if you could share the reported inhibition for `O=C(Cc1ccncc1)N[C@@H]1CC[C@H](CCn2cc(-c3ccccc3F)nn2)O[C@H]1CO` .
Ans. -1.33

###

system_under_test: Lysine-specific demethylase 4C (Homo sapiens)
protocol: KDM4C H3K9me3 demethylation inhibition – biochemical, single concentration HTS, primary screen (AID 720574)
condition_context: GST-KDM4C 2-372, H3K9me3 peptide, LANCE TR-FRET; at 12.5 µM; stronger effect = higher value
Among all 96,000 compounds or so, about 140 (0.15%) were called active. What follows is part of a selection rich in actives, with near analogues and random picks from the rest.
inhibition reference
API: value field is a number in %; no unit string.

Solved cases (2 shown):
Qu. I would be grateful if you could share the reported inhibition for `O=C(CC(F)(F)F)N1C[C@H]2[C@@H](c3ccccc31)[C@H](CO)N2C(=O)Cc1ccccc1` .
Ans. -2.83

Qu. Now the same for `COc1ccc(CNC(=O)C[C@H]2CC[C@@H]3[C@H](COc4ccc(NC(=O)C5CC5)cc4C(=O)N3C)O2)cc1`
Ans. 0.0505

More entries:
Qu. I would be grateful if you could share the reported inhibition for `Cc1cccc(S(=O)(=O)N2C[C@@H]3[C@H](c4ccccc42)[C@H](CO)N3CC2CCOCC2)c1` .
Ans. -0.667

Qu. Now the same for `Cc1cccc(S(=O)(=O)N2C[C@@H](O)COC[C@H]3O[C@H](CC(=O)N4CCN(C)CC4)CC[C@@H]32)c1`
Ans. -1

Qu. Now the same for `CN1C(=O)c2cc(NC(=O)C3CCC3)ccc2OC[C@@H]2O[C@@H](CC(=O)NCc3ccccc3F)CC[C@@H]21`
Ans. -1.68

Qu. Now the same for `O=C(NCC[C@H]1CC[C@@H](NC(=O)C2CC2)[C@H](CO)O1)c1ccc(F)cc1`
Ans. -0.983

Qu. Now the same for `O=C(NC[C@@H]1N[C@@H](CO)[C@H]1c1ccc(-c2cccnc2)cc1)c1cccc(F)c1`
Ans. -0.99

Qu. Now the same for `C/C=C/c1ccccc1[C@@H]1[C@@H](C#N)N(C(=O)Cc2ccccn2)[C@H]1CO`
Ans. 0.483

Qu. Now the same for `CO[C@H]1CN(C)C(=O)c2ccc(NC(=O)C3CCC3)cc2OC[C@H](C)NC[C@@H]1C`
Ans. -0.842

Qu. Now the same for `CNC(=O)C[C@@H]1CC[C@@H]2[C@@H](COc3ccc(NC(=O)Nc4ccccc4OC)cc3C(=O)N2C)O1`
Ans. -0.148

Qu. Now the same for `COCC(=O)Nc1ccc2c(c1)[C@H]1C[C@@H](CC(=O)NCc3ccccc3F)O[C@H](CO)[C@H]1O2`
Ans. 1.67

Qu. Now the same for `COc1ccccc1S(=O)(=O)N[C@H]1CC[C@@H](CC(=O)NCc2cc(F)cc(F)c2)O[C@H]1CO`
Ans. -1.06

Qu. Now the same for `COc1cccc(NC(=O)N[C@@H]2CC[C@H](CC(=O)Nc3ccccc3)O[C@@H]2CO)c1`
Ans. -0.777

Qu. Now the same for `CCCC(=O)N1CCC2(CC1)CN[C@H](CO)c1[nH]c3cc(OC)ccc3c12`
Ans. -0.39

Qu. Now the same for `C[C@@H]1CN([C@@H](C)CO)S(=O)(=O)c2ccc(-c3ccccc3F)cc2O[C@H]1CN(C)Cc1cncnc1`
Ans. 5.07

Qu. Now the same for `CC(C)NC(=O)N[C@H]1CC[C@@H](CCNC(=O)C2CCC2)O[C@@H]1CO`
Ans. -2.41

Qu. Now the same for `CN(C)C(=O)C[C@@H]1C[C@@H]2c3cc(NC(=O)NC4CCCCC4)ccc3O[C@@H]2[C@H](CO)O1`
Ans. -1.19
